Test system: rat glial cell gap junction
Protocol description: Gap junction dye coupling assay (Lucifer yellow dye transfer; microinjection or scrape loading)
Format: cell-based
Condition info: result in words, concentration not stated at the place
Endpoint label: inhibition of gap junction-mediated dye transfer

| Compound | Recorded result |
| --- | --- |
| CCCCCCCC/C=C\CCCCCCC(O)C(N)=O (stereo not drawn) [α-hydroxy oleamide, 2-hydroxy-9Z-octadecenamide] | effective inhibitors |
| CCCCCCCC/C=C\CCCCCCCC(=O)N(C)CC(=O)OCC | effective inhibitors |
| CCCCCCCC/C=C\CCCCCCC(C)C(N)=O (stereo not drawn) [α-methyl oleamide] | potent inhibitors |
| CCCCCCCC/C=C\CCCCCCC(SC(C)=O)C(N)=O (stereo not drawn) [α-acetylthiooleamide] | effective inhibitors |
| CCCCCCCC/C=C\CCCCCCC(S)C(N)=O (stereo not drawn) | ineffective |

Given the entry CCCCCCCC/C=C\CCCCCCC(C)(C)C(N)=O [α,α-dimethyl oleamide] , report its measured inhibition of gap junction-mediated dye transfer.
potent inhibitors

Entry under review: "CCCCCCCC/C=C\CCCCCCCC(=O)NCC(=O)O" . Reported inhibition of gap junction-mediated dye transfer?
ineffective

Return reported inhibition of gap junction-mediated dye transfer; argument: CCCCCCCC/C=C\CCCCCCCC(=O)OC[C@H](CO)OC(C)=O [(2S)-1-oleoyl-2-acetylglycerol, reference compound]
not inhibitors

Could you share which inhibition of gap junction-mediated dye transfer value was measured for "CCCCCCCC/C=C\CCCCCCCC(=O)N(C)CC(=O)O" ?
effective inhibitors

Looking for the measured inhibition of gap junction-mediated dye transfer of CCCCCCCC/C=C\CCCCCCCC(=O)NCC(N)=O [N-oleoyl glycinamide] , can you help?
ineffective

# lookup: inhibition of gap junction-mediated dye transfer of CCCCCCCC/C=C\CCCCCCC(Cl)C(N)=O (stereo not drawn) [α-chlorooleamide]
effective inhibitors

Given the compound CCCCCCCC/C=C\CCCCCCCC(=O)OCC(CO)OC(C)=O (racemic) [1-oleoyl-2-acetylglycerol, reference compound] , what is its reported inhibition of gap junction-mediated dye transfer?
not inhibitors

====

Test system: BHK/β1 cells
Protocol description: Gap junction dye transfer between β1 connexin-transfected BHK cells
Type: cell-based, baby hamster
Condition info: concentration not given
Endpoint label: effect on dye transfer

Examples with their reported effect on dye transfer follow.
| Compound | Endpoint label | Recorded result |
| --- | --- | --- |
| CCCCCCCO [heptanol, reference compound] | effect on dye transfer | inhibitory effects |
| CCCCCCCC/C=C/CCCCCCCC(N)=O [trans-9-octadecenamide] | effect on dye transfer | no effect |
| CCCCC/C=C\C/C=C\C/C=C\C/C=C\CCCC(=O)NCCO [anandamide, reference compound] | effect on dye transfer | inhibitory effects |
| CCCCCCCC/C=C\CCCCCCCC(=O)O [Oleic acid, reference compound] | effect on dye transfer | no effect |

--- query ---
Suppose we examine the compound CC1(C)[C@@H](O)CC[C@]2(C)[C@H]3C(=O)C=C4[C@@H]5C[C@@](C)(C(=O)O)CC[C@]5(C)CC[C@@]4(C)[C@]3(C)CC[C@@H]12 [18β-GA, 18β-glycyrrhetinic acid, reference compound] ; what effect on dye transfer value has been reported?
inhibitory effects

====

Tested on: rat glial cell gap junction
Protocol description: Gap junction dye coupling assay (Lucifer yellow dye transfer; microinjection or scrape loading)
Type: cell-based
Condition info: 50 µM
Endpoint label: inhibition of gap junction-mediated dye transfer

| Compound | Recorded result |
| --- | --- |
| CCCCC/C=C\C/C=C\C/C=C\C/C=C\CCCC(=O)NCCO [anandamide, reference compound] | effective inhibitors |
| CCCCCCCC/C=C\CCCCCCCC(=O)NCCO [oleyl ethanolamide] | effective inhibitors |

From: patent EP1039902B1
